In this section, each of the compounds is paired with its reported kinase still bound, per cent of control.
Measured Target: TESK1 (human) (UniProt Q15569)
Sequence (Q15569 whole entry, looked up): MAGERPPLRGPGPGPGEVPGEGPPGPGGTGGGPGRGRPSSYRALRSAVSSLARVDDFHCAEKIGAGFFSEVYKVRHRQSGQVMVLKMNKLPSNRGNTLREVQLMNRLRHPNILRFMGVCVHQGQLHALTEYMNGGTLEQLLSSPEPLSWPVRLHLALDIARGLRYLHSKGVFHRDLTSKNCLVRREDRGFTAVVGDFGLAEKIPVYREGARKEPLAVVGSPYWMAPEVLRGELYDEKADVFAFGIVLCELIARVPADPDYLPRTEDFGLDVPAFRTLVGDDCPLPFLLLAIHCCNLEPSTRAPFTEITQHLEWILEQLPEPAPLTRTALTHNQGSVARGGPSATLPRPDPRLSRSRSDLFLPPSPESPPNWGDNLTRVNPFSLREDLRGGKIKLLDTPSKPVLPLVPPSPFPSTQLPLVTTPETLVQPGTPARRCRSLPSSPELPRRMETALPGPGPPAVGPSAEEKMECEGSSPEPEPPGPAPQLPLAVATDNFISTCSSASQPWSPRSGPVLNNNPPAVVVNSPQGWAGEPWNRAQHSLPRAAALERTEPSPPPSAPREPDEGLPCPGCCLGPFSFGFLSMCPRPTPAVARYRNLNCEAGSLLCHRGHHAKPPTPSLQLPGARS
Assay Notes: KINOMEscan competition binding
Condition Info: compound 10.0 µM

Line Notation: COCC(=O)NC/C=C/c1ccc2ncnc(Nc3ccc(Oc4ccc(C)nc4)c(C)c3)c2c1
kinase still bound, per cent of control / %: 75

Line Notation: Cc1n[nH]c2ccc(-c3cncc(OC[C@@H](N)Cc4c[nH]c5ccccc45)c3)cc12
kinase still bound, per cent of control / %: 100

Line Notation: CNC(=O)c1ccc(Nc2cc(Nc3ccccc3S(=O)(=O)C(C)C)c3cc[nH]c3n2)nc1
kinase still bound, per cent of control / %: 30

Line Notation: C=CC(=O)Nc1cc(-n2c(=O)ccc3cnc4ccc(-c5cn[nH]c5)cc4c32)ccc1C
kinase still bound, per cent of control / %: 54

Line Notation: N#CCNC(=O)c1ccc(-c2ccnc(Nc3ccc(N4CCOCC4)cc3)n2)cc1
kinase still bound, per cent of control / %: 100

Line Notation: CCN(CC)CCCCNc1ncc2cc(-c3cc(OC)cc(OC)c3)c(NC(=O)NC(C)(C)C)nc2n1
kinase still bound, per cent of control / %: 100

Line Notation: O=C1NC(=O)/C(=C/c2ccc3nccc(-c4ccncc4)c3c2)S1
kinase still bound, per cent of control / %: 84

Line Notation: COc1cc(N2CCN(C)CC2)ccc1Nc1ncc2c(n1)N(C)c1ccccc1C(=O)N2C
kinase still bound, per cent of control / %: 100

Line Notation: COc1cc2ncn(-c3cc(OCc4ccccc4C(F)(F)F)c(C(N)=O)s3)c2cc1OC
kinase still bound, per cent of control / %: 73

Line Notation: CCN(CC)CCCCNc1ncc2c(n1)N(C)C(=O)N(c1c(Cl)c(OC)cc(OC)c1Cl)C2
kinase still bound, per cent of control / %: 100

Line Notation: CN(C)C/C=C/C(=O)Nc1ccc(C(=O)Nc2cccc(Nc3nccc(-c4cccnc4)n3)c2)cc1
kinase still bound, per cent of control / %: 74

Line Notation: O=C(Nc1cccc(Nc2ncc(Br)c(NCCc3cnc[nH]3)n2)c1)N1CCCC1
kinase still bound, per cent of control / %: 99

Line Notation: NC(=O)Nc1cc(-c2cccc(F)c2)sc1C(=O)N[C@@H]1CCCNC1
kinase still bound, per cent of control / %: 11

Line Notation: CNC(=O)c1cc(Oc2ccc(NC(=O)Nc3ccc(Cl)c(C(F)(F)F)c3)cc2)ccn1
kinase still bound, per cent of control / %: 62

Line Notation: C=CC(=O)Nc1ccc(CN(C(=O)Nc2c(Cl)c(OC)cc(OC)c2Cl)c2cc(Nc3ccc(N4CCN(C)CC4)cc3)ncn2)cc1
kinase still bound, per cent of control / %: 100

Line Notation: COc1ccc(N(C(=O)Oc2c(C)cccc2C)c2ccnc(Nc3ccc(N4CCN(C)CC4)cc3)n2)c(OC)c1
kinase still bound, per cent of control / %: 0

Line Notation: COc1cc2ncnc(-n3nc(-c4ccccn4)nc3N)c2cc1OC
kinase still bound, per cent of control / %: 100

Line Notation: CCN1CCN(C(=O)Cc2ccc(Nc3ncc(F)c(Nc4ccc(C(=O)Nc5ccccc5Cl)cc4)n3)cc2)CC1
kinase still bound, per cent of control / %: 44

Line Notation: O=c1cc(N2CCOCC2)oc2c(-c3cccc4c3sc3ccccc34)cccc12
kinase still bound, per cent of control / %: 72

Line Notation: CS(=O)(=O)N1CCN(Cc2cc3nc(-c4cccc5[nH]ncc45)nc(N4CCOCC4)c3s2)CC1
kinase still bound, per cent of control / %: 100

Line Notation: COc1cc(C(=O)N2CCC(N3CCN(C)CC3)CC2)ccc1Nc1ncc2c(n1)N(C)c1ccccc1C(=O)N2C
kinase still bound, per cent of control / %: 82

From: the kinase profiling compilation of Christmann-Franck et al. (2016)
